Cited source for all entries: patent US20250170268A1

system: CEACAM5-positive SK-CO-1 cells; assay: Cell viability assay (Cell Titer-Glo, six days) on SK-CO-1; type: cell-based; details: Homo sapiens, 144 h, read-out: SK-CO-1 IC50 [M]; n ≥ 2; SK-CO-1, CEACAM5 positive; six days; geometric mean
Observable: IC50 (M)
Give just the number in M; leave the unit off.

(Q) Reported IC50 for CC[C@@]1(O)C(=O)OCc2c1cc1n(c2=O)Cc2c-1nc1cc(F)c(C)c3c1c2[C@@H](N)CC3 [Payload] : what is it?
(A) 2.2e-10
